- protocol_summary: Biodistribution studies in mice (radioiodinated compounds, % ID/g-tissue)
- Format: in vivo
- conditions: mouse, small/large intestine, iv, small/large intestine, 1', tracer level, but MDTA-Na 0.18M and MDTA-NMG 0.19M, read-out: Biodistribution, Sm/Lrg. Intestine 1'
- Description: All of the new analogs were radiolabeled in order to determine their physical and biological properties. The iodinated compounds were exchange-labeled by heating with Na^125 I in the presence of CuSO4 and Na2 S2 O5 in glacial acetic acid at 135-150° C. for 1 h, followed by HPLC purification using a nucleosil C18 column and CH3 CN--H2 O containing 0.1% TFA as an eluent. […]
Listing of entries alongside the reported tissue uptake at 1 min.
The figure you give is taken to be in %ID/g; do not add the unit.

CC(=O)N(C)c1c(I)c(C(=O)Nc2ccc(CCCCCCC(=O)O)cc2)c(I)c(N(C)C(C)=O)c1I 1.38
CC(=O)N(C)c1c(I)c(C(=O)O)c(I)c(N(C)C(C)=O)c1I 1.5
CC(=O)N(C)c1c(I)c(C(=O)Nc2ccc(CC(=O)O)cc2)c(I)c(N(C)C(C)=O)c1I 2.47

Okay, next one:
Given CC(=O)N(C)c1c(I)c(C(=O)NCCCCCCC(=O)O)c(I)c(N(C)C(C)=O)c1I , state its recorded tissue uptake at 1 min. 4.92

----------
- protocol_summary: Biodistribution studies in mice (radioiodinated compounds, % ID/g-tissue)
- Assay type: in vivo
- conditions: mouse, blood, iv, blood, 60', tracer level, but MDTA-Na 0.18M and MDTA-NMG 0.19M, read-out: Biodistribution, Blood 60'
measurement_label: tissue uptake at 1 h (%ID/g)
Numbers only here, please. The scale is %ID/g.

// tissue uptake at 1 h lookup, key: CC(=O)N(C)c1c(I)c(C(=O)Nc2ccc(CCCCCCCCCCCCCCC(=O)O)cc2)c(I)c(N(C)C(C)=O)c1I 0.12

Thanks! And CC(=O)N(C)c1c(I)c(C(=O)Nc2ccc(CCCC(=O)O)cc2)c(I)c(N(C)C(C)=O)c1I ? 0.07

Similarly, CC(=O)N(C)c1c(I)c(C(=O)Nc2ccc(CCCCCCC(=O)O)cc2)c(I)c(N(C)C(C)=O)c1I ? 0.15

Item: CC(=O)N(C)c1c(I)c(C(=O)NCCCCCCCCCCCC(=O)O)c(I)c(N(C)C(C)=O)c1I 0.04

----------
- protocol_summary: Biodistribution studies in mice (radioiodinated compounds, % ID/g-tissue)
- Type: in vivo
- conditions: mouse, liver, iv, liver, 1', tracer level, but MDTA-Na 0.18M and MDTA-NMG 0.19M, read-out: Biodistribution, Liver 1'
- Method: All of the new analogs were radiolabeled in order to determine their physical and biological properties. The iodinated compounds were exchange-labeled by heating with Na^125 I in the presence of CuSO4 and Na2 S2 O5 in glacial acetic acid at 135-150° C. for 1 h, followed by HPLC purification using a nucleosil C18 column and CH3 CN--H2 O containing 0.1% TFA as an eluent. […]
tissue uptake at 1 min strictly less than 30 %ID/g = True. Otherwise False.

// below: answered compounds
CC(=O)N(C)c1c(I)c(C(=O)NCC(=O)O)c(I)c(N(C)C(C)=O)c1I True
CC(=O)N(C)c1c(I)c(C(=O)NCCCC(=O)O)c(I)c(N(C)C(C)=O)c1I True
CC(=O)N(C)c1c(I)c(C(=O)Nc2ccc(CCCCCCCCCCC(=O)O)cc2)c(I)c(N(C)C(C)=O)c1I False
CC(=O)N(C)c1c(I)c(C(=O)Nc2ccc(CCCCCCC(=O)O)cc2)c(I)c(N(C)C(C)=O)c1I False
CC(=O)N(C)c1c(I)c(C(=O)O)c(I)c(N(C)C(C)=O)c1I True

Item CC(=O)N(C)c1c(I)c(C(=O)NCCCCCCCCCCCC(=O)O)c(I)c(N(C)C(C)=O)c1I : tissue uptake at 1 min beneath 30 %ID/g, strictly? True
